experiment notes: in vivo
test conditions: Sprague-Dawley, rat, po, 5 mg/kg
experimental readout: half-life at 24 h (h)
Numbers only, in h.

Below are worked cases with known answers.
{"molecule": "COc1ccc(-c2cc(C)c(Nc3ncc4c(n3)n(C3CCOCC3)c(=O)n4C)cn2)cc1OC", "measure unit": "h", "half-life at 24 h": 6.73}
{"molecule": "COc1ccc(-c2cc(C)c(Nc3ncc4c(n3)n(C3CCOCC3)c(=O)n4C)cn2)cn1", "measure unit": "h", "half-life at 24 h": 4.37}
{"molecule": "Cc1cc(-c2nc[nH]n2)ccc1Nc1ncc2c(n1)n(C1CCOCC1)c(=O)n2C", "measure unit": "h", "half-life at 24 h": 3.72}
{"molecule": "Cc1cc(-c2ccc(C=O)o2)ncc1Nc1ncc2c(n1)n(C1CCOCC1)c(=O)n2C", "measure unit": "h", "half-life at 24 h": 34.4}
{"molecule": "Cc1cc(-c2cccs2)ncc1Nc1ncc2c(n1)n(C1CCOCC1)c(=O)n2C", "measure unit": "h", "half-life at 24 h": 7.34}

For every listed record, write down its half-life at 24 h.
1. Cc1cc(-c2cnn(C(F)F)c2)ncc1Nc1ncc2c(n1)n(C1CCOCC1)c(=O)n2C
2. Cc1cnc(-c2cnn(C)c2)cc1Nc1ncc2c(n1)n(C1CCOCC1)c(=O)n2C

Result:
5.82
11.6

====

target or system: DNA-dependent protein kinase catalytic subunit (Homo sapiens)
Sequence (P78527 whole entry): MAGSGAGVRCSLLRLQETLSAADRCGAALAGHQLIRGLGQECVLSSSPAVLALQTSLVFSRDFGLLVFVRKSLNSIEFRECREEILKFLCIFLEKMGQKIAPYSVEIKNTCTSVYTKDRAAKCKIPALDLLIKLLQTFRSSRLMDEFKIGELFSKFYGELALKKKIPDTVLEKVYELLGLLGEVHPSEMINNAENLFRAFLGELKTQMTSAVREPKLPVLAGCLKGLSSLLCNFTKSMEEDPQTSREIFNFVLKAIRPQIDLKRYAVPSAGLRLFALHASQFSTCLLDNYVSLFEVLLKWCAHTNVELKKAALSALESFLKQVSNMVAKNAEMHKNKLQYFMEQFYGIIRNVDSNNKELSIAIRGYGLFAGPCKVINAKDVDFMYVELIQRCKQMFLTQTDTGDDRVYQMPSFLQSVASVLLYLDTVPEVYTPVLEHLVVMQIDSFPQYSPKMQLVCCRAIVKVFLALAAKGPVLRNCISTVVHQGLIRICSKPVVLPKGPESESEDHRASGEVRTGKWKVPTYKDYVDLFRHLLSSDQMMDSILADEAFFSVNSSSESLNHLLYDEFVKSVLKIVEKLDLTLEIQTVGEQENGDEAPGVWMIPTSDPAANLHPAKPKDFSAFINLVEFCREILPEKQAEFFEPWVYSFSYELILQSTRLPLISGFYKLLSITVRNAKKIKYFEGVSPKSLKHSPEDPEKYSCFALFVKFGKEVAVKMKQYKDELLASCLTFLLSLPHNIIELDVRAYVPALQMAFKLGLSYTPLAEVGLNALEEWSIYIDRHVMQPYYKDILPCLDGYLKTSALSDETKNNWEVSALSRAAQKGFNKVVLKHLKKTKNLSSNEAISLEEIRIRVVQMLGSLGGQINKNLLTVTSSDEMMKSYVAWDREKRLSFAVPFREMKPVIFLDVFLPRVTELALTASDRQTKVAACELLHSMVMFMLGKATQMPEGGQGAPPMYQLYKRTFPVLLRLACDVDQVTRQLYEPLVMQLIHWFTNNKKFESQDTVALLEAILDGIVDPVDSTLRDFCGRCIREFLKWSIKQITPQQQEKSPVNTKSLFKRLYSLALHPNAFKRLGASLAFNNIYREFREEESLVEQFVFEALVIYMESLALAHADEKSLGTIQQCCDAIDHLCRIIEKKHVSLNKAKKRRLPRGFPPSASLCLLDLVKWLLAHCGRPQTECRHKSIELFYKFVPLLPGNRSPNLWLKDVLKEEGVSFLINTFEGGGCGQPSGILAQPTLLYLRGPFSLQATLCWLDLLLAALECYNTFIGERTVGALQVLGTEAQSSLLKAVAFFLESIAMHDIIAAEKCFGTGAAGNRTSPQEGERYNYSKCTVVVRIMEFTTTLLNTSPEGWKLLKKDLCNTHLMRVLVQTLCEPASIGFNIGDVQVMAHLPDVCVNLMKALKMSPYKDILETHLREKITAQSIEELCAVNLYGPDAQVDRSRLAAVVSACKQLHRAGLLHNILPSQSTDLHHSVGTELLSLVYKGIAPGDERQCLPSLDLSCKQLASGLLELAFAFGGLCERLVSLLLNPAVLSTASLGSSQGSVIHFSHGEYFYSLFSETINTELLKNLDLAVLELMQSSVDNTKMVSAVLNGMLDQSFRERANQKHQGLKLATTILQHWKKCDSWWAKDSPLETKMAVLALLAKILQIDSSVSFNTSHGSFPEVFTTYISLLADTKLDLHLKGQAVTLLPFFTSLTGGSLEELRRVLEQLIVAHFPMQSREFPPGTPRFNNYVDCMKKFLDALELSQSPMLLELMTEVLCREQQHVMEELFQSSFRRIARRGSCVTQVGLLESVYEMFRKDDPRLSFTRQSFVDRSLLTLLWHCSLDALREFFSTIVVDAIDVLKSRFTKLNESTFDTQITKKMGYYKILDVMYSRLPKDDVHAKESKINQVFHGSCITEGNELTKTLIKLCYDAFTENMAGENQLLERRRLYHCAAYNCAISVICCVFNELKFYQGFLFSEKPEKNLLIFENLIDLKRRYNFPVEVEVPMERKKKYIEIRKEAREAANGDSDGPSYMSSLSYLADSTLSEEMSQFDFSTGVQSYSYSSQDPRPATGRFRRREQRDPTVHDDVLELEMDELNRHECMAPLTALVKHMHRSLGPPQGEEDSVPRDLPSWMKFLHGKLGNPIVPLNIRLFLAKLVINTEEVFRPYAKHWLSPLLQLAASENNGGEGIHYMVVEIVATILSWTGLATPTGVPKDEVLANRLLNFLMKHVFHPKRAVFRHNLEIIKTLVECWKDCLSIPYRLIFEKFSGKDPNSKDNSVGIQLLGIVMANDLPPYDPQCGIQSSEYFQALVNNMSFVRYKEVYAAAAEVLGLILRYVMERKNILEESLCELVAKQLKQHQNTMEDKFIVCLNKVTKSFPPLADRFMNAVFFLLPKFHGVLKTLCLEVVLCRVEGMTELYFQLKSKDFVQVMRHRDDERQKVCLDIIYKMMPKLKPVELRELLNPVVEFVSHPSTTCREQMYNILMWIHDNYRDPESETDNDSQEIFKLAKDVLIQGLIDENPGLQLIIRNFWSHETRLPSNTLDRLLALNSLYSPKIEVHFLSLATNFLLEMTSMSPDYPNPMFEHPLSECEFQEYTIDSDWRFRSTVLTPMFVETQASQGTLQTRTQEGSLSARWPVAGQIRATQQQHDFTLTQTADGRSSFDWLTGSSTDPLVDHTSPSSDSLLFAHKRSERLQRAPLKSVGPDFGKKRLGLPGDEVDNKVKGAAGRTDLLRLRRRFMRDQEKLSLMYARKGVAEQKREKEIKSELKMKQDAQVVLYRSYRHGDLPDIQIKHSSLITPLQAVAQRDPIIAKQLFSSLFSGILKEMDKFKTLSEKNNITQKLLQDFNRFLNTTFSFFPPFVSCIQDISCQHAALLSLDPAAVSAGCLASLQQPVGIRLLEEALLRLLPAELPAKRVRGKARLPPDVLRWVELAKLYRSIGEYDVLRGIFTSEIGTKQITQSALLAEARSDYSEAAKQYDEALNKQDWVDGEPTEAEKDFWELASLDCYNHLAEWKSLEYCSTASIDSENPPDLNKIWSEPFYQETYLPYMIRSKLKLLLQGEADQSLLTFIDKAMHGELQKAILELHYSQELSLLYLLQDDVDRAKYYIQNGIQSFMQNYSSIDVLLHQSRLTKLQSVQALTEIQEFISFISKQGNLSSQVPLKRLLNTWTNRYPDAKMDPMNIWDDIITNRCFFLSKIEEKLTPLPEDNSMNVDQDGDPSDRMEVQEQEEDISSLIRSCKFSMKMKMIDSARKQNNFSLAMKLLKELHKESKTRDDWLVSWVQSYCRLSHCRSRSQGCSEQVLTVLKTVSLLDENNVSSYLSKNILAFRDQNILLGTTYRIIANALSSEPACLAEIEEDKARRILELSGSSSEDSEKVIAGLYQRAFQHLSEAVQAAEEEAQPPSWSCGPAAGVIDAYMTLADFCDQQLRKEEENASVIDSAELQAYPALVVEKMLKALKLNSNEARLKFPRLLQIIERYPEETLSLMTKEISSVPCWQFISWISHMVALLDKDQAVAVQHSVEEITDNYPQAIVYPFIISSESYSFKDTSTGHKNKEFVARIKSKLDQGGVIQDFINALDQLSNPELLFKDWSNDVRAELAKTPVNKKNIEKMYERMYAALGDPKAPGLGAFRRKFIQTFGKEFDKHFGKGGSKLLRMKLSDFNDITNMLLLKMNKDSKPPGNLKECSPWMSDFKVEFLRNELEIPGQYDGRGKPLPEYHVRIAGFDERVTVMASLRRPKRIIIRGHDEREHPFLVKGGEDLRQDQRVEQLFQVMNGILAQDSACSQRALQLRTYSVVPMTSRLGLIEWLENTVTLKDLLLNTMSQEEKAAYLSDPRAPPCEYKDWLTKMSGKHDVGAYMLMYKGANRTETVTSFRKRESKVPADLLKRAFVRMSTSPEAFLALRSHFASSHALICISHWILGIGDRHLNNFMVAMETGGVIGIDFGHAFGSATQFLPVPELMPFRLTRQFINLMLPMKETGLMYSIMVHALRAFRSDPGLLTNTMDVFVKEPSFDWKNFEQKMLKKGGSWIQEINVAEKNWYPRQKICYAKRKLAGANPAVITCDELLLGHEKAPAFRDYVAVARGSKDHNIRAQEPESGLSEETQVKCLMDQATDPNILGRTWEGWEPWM
Please use the following IC50 ranges when assigning a class: LOW: < 1 nM; MID: ≥ 1 nM and < 8 nM; HIGH: ≥ 8 nM

Check out these entries, answers already filled in.
{"compound": "Cc1cc(-c2ccsc2)ncc1Nc1ncc2c(n1)n(C1CCOCC1)c(=O)n2C", "class label": "LOW"}
{"compound": "Cc1cc(-c2cnn(C)c2)ncc1Nc1ncc2c(n1)n([C@H]1CCOC1)c(=O)n2C", "class label": "MID"}
{"compound": "Cc1cc(-c2cnn(C)c2)ncc1Nc1ncc2c(n1)n(C1CCCCC1C)c(=O)n2C (centres undefined)", "class label": "HIGH"}
{"compound": "Cc1cc(-c2cnn(C)c2)ncc1Nc1ncc2c(n1)n(C1CCN(C(=O)C3CC3(F)F)CC1)c(=O)n2C (centres undefined)", "class label": "HIGH"}
{"compound": "Cc1cc(-c2ncn(C)n2)ccc1Nc1ncc2c(n1)n(C1CCOCC1)c(=O)n2C", "class label": "HIGH"}
{"compound": "COc1ccc(-c2cc(C)c(Nc3ncc4c(n3)n(C3CCOCC3)c(=O)n4C)cn2)cn1", "class label": "MID"}
{"compound": "COc1ccc(-c2ccc(Nc3ncc4c(n3)n(C3CCOCC3)c(=O)n4C)c(C)n2)cn1", "class label": "HIGH"}
{"compound": "Cc1cc(-c2cnn(C)c2)ncc1Nc1ncc2c(n1)n(C1CCN(S(=O)(=O)C3CC3)CC1)c(=O)n2C", "class label": "MID"}

Problem: Where would "Cc1nc(-c2cn[nH]c2)ccc1Nc1ncc2c(n1)n(C1CCOCC1)c(=O)n2C" land among the classes by reported IC50?
Result: HIGH

Problem: Where would "Cc1cc(-c2nc[nH]n2)ccc1Nc1ncc2c(n1)n(C1CCOCC1)c(=O)n2C" land among the classes by reported IC50?
Result: LOW

Problem: Where would "Cc1cc(-c2cnn(C)c2)ncc1Nc1ncc2c(n1)n(C1CCN(S(=O)(=O)C(F)(F)F)CC1)c(=O)n2C" land among the classes by reported IC50?
Result: MID
